# subject.of.test: Transient receptor potential cation channel subfamily V member 1 (Homo sapiens)
# test.summary: HTS Assay for Compounds that Act as Potentiators of the Vanilloid Receptor 1; further: 0% is about no effect
# test.parameters: TRPV1-expressing cells, Fluo-8 calcium influx, capsaicin EC20 potentiation; at 8.33 µM; hits give high values
Hit rate of the full screen: of about 320,000 compounds, about 55 (0.02%) were called active. Another 3% or so got no clear call; they are omitted. The list comes from a sample in which actives are over-represented; it also holds close analogues and randomly drawn compounds.
metric: potentiation (%)
Write it as a number; the unit % goes unstated.

Use these answered entries as a reference point.
{"compound": "COc1ccccc1C(=O)Nc1ccc(C)c(S(=O)(=O)N2CCCCC2)c1", "subject.of.test": "Transient receptor potential cation channel subfamily V member 1 (Homo sapiens)", "output.unit": "%", "assay.value": -33.7}
{"compound": "Cc1ccsc1C(=O)NCCc1ccco1", "subject.of.test": "Transient receptor potential cation channel subfamily V member 1 (Homo sapiens)", "output.unit": "%", "assay.value": -5.45}
{"compound": "COCCn1c(C)cc(C(=O)CSc2nnc(C3CC3)n2C2CC2)c1C", "subject.of.test": "Transient receptor potential cation channel subfamily V member 1 (Homo sapiens)", "output.unit": "%", "assay.value": -2.92}
{"compound": "CN(c1ccccc1)S(=O)(=O)c1cccc(NC(=O)Cc2ccc(Cl)cc2)c1", "subject.of.test": "Transient receptor potential cation channel subfamily V member 1 (Homo sapiens)", "output.unit": "%", "assay.value": -2.65}
{"compound": "COc1cccc(C(=O)c2sc3nc(-c4ccccc4)cc(C(F)(F)F)c3c2N)c1", "subject.of.test": "Transient receptor potential cation channel subfamily V member 1 (Homo sapiens)", "output.unit": "%", "assay.value": -4.5}
{"compound": "Oc1ccc(Cl)cc1C1C=C(c2ccc3c(c2)OCO3)NC(c2ccc(F)c(Br)c2)N1 (centres undefined)", "subject.of.test": "Transient receptor potential cation channel subfamily V member 1 (Homo sapiens)", "output.unit": "%", "assay.value": 3.03}

Task: Fill in: potentiation of O=C(CCNC(=O)c1ccc(Cl)cc1)NC1CCCc2ccccc21 (centres undefined) is ___
Result: 27

Task: // repeat for COc1cccc(NC(=O)CN(C)CC(=O)c2c(N)n(Cc3ccccc3)c(=O)n(C)c2=O)c1 and report
Result: 23.5

Task: Ok, now Cc1ccc(NC(=O)Cc2nc(COC(=O)C(C)NS(=O)(=O)c3ccc(C)cc3)cs2)cc1 (centres undefined)
Result: 1.83

Task: // next record O=S(=O)(NCc1ccccc1Br)c1ccccc1Br
Result: 5.51

Task: And COc1ccc(S(=O)(=O)Nc2cccc3cccnc23)c(N)c1 ?
Result: 13.6

Task: Now consider CCOC(=O)c1cc(OC(=O)c2ccccc2Cl)n(-c2ccccc2)n1 .
Result: 0.753
